- Tested on: SW-620 colon
- EXPERIMENT NOTES: NCI-60 one-dose screen, 48 h
- CONDITION SUMMARY: 10 µM
About 83,000 compounds went through this panel and 20% of them were active in at least one assay; those are over-represented in the sample as a whole. Activity calls are given as the source filed them. The calls were made as follows: active = growth percent below 10; inactive = the rest.
Pick from 1 = active, -1 = inactive when you respond.

The examples below pair each entry with its known result.
- COMPOUND: "COCCOC(=O)NC(=O)Nc1ccc(C(=O)c2ccc(Cl)cc2)cc1"
  TARGET: "SW-620 colon"
  LABEL: -1
- COMPOUND: "COc1cc(-c2nc3ccccc3[nH]2)ccc1OCc1nnc(-c2ccc(Br)cc2)o1"
  TARGET: "SW-620 colon"
  LABEL: -1
- COMPOUND: "Cc1cc2cc3c(=O)[nH]c(=O)cc-3n(CC(O)C(O)C(O)CO)c2cc1C (stereo not given)"
  TARGET: "SW-620 colon"
  LABEL: -1
- COMPOUND: "C#C[C@]1(O)CC[C@H]2[C@@H]3CC[C@H]4CC(F)(F)CC[C@]4(C)[C@H]3CC[C@@]21C"
  TARGET: "SW-620 colon"
  LABEL: -1
- COMPOUND: "COC(=O)[C@]12CC[C@@H](C)[C@H](C)[C@@H]1C1=CC[C@@H]3[C@@]4(C)CC(=O)[C@H](O)[C@@](C)(CO)[C@@H]4C(=O)C[C@@]3(C)[C@]1(C)CC2"
  TARGET: "SW-620 colon"
  LABEL: 1

Outcome logged for `COc1ccccc1CNCCCN1C(=O)c2ccc3c4c(ccc(c24)C1=O)C(=O)N(CCCNCCNCCCN)C3=O` in this assay: 1

Entry to check: `CC1(C)CC(OCCCC[P+](c2ccccc2)(c2ccccc2)c2ccccc2)CC(C)(C)N1O` 1

Entry to check: CCN(CC)CC(O)Cc1ccc(OC)cc1 (stereo not given) -1

Entry to check: `CCN(CC)CCOC(=O)c1ccc(NC(=O)Nc2cccc(Cl)c2)cc1` -1

Entry to check: `Nc1ncc(-c2ccc(C(F)(F)F)cc2)c(NC2CCCCCC2)n1` -1

Entry to check: `Clc1ccc(-c2nc(-c3cccs3)cn3ccnc23)cc1` -1

Entry to check: CC(=O)OC1Oc2ccccc2-c2oc(=O)c(-c3cc(=O)oc4cc(O)ccc34)cc21 (stereo not given) -1

Entry to check: `COCc1cc2c(cc1Br)OCO2` -1

Entry to check: `N#C/C(=C/c1cc([N+](=O)[O-])ccc1Cl)C(N)=O` -1

Entry to check: `Cc1nc2cc(-n3c(-c4ccc(F)cc4)nc4ccccc4c3=O)ccc2n1Cc1ccccc1` -1

Entry to check: `COc1cc(NS(C)(=O)=O)ccc1Nc1c2ccc(Cl)cc2nc2c(OC)cccc12` 1

Entry to check: `O=C(NCc1cn(Cc2cccc(Oc3ccccc3)c2)nn1)c1cccnc1Nc1ccccc1` -1

Entry to check: `CCOC(=O)Cn1nnc(-c2ccc(OCc3ccccc3F)cc2)n1` -1

Entry to check: `Nc1ccccc1NC(=O)CCCCCCC(=O)Nc1ccc2c(c1)/C(=C/c1ccc[nH]1)C(=O)N2` -1

Entry to check: `N#Cc1cnc2ccc(NCc3cnc[nH]3)cc2c1Nc1ccc(F)c(Cl)c1` -1
